# TGT: T1, recombinant human HER2 extracellular domain protein (human, UniProt P04626 23-652)
# T1 construct: range 23-652; Range is printed for the immunogen/panning protein; also called ErbB2; recombinant HER2 protein
# METHOD: BLI, Protein A capture
READOUT_LABEL: koff (s⁻¹)
Numeric answer only, unit s⁻¹ assumed.

Completed entries (count: 3):
Query string: Return koff (reported value) for this binder: 2126-Hu-H36 (antibody, IgG1, V domains shown, IgG1/Cκ) VH: QVQLVQSGSELKKPGASVKVSCKASGYTFTDYSMHWVRQAPGQGLEWMGWINTETGEPTYADDFKGRFTFSLDTSVSTAYLQISSLKAEDTAVYFCVRVGRYDYAMDYWGQGTTVTVSS VL: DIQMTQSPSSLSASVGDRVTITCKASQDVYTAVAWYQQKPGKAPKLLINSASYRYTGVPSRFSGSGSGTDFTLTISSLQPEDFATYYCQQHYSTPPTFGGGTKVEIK
Result string: 0.000558

Query string: Fill in koff for record 2126-Hu-H31 (antibody, IgG1, V domains shown, IgG1/Cκ) VH: QVQLVQSGSELKKPGASVKVSCKASGYTFTDYSMHWVRQAPGQGLEWMGWINTETGDPTYADDFKGRFVFSLDTSVSTAYLQISSLKAEDTAVYFCVRVGRYDYAMDYWGQGTTVTVSS VL: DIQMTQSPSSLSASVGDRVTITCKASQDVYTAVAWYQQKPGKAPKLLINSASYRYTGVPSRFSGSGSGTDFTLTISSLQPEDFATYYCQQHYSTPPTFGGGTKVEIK
Result string: 0.000942

Query string: Identify the reported koff for the following entry. 2126-Hu-H27 (antibody, IgG1, V domains shown, IgG1/Cκ) VH: QVQLVQSGSELKKPGASVKVSCKASGYTFTDYSMHWVRQAPGQGLEWMGWINTGTGEPTYADDFKGRFVFSLDTSVSTAYLQISSLKAEDTAVYFCVRVGRYDYAMDYWGQGTTVTVSS VL: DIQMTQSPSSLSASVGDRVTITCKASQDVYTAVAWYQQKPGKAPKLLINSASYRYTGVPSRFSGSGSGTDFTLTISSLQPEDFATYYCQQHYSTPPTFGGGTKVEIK
Result string: 0.000164

Turning now to a further record.
Query string: Give reported koff value for 2126-Hu-H60 (antibody, IgG1, name in Kabat numbering, V domains shown, IgG1/Cκ) VH: QVQLVQSGSELKKPGASVKVSCKASGYTFTDYSMHWVRQAPGQGLEWMGWINTETGEPTYADDFKGRFVFSLDTSVSTAYLQISSLKAEDTAVYFCVRVGRYYYAMDYWGQGTTVTVSS VL: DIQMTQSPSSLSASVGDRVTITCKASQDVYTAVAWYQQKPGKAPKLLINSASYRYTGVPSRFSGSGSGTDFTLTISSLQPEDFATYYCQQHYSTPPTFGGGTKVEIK
Result string: 0.00361
